Reference source for all entries: the supplement of paper PMC10567573

B1: TFE3 (parent)
chain: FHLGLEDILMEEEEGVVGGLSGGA

- Variants of: B1
- procedureText: protein stability index of a GFP-peptide fusion (GPS, HEK-293T) (PSI 1-6); higher = more stable;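 further: lentivirally expressed fusions sorted by FACS into six bins by GFP to DsRed ratio, PSI derived from sequencing read proportions per bin multiplied by bin number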
- studyConditions: c terminus: a fixed tail appended
measuredProperty: protein stability index
Number, no unit, nothing else.

These recorded examples may help you get a feel for the data.
Find the recorded protein stability index belonging to FHLGLEDILMEEEESVVGGLSGGA and report it.
3.92

Find the recorded protein stability index belonging to FHFGLEDILMEEEEGVVGGLSGGA and report it.
3.92

Find the recorded protein stability index belonging to FHLGREDILMEEEEGVVGGLSGGA and report it.
4.04

Find the recorded protein stability index belonging to FHLPLEDILMEEEEGVVGGLSGGA and report it.
3.05

Find the recorded protein stability index belonging to FHLGLEDILMEEEEGVVGGLGGGA and report it.
4.07

Alright, here's another variant for you.
Find the recorded protein stability index belonging to FHLGLEDILMEEEEGVIGGLSGGA and report it.
3.92
